Each entry below lists one item and its recorded inhibition value.
# Assay Summary: inhibitors of TNFa-induced NFkB p65 translocation, primary screen, imaging, HUVEC, MLSMR starter and 10KST1 sets (AID 438);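 note: compound added about 3h40 before a 20 min TNFalpha stimulation; signal is the nuclear over cytoplasmic p65 intensity ratio per well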
# Condition Label: HUVEC TNFa-induced p65 nuclear translocation; at 2 µM, stronger effect = higher value, 0% TNFa-plus-vehicle, 100% no-TNFa wells
Unit % implied. Number only.

Example compounds with recorded inhibition:
[
  {
    "Compound": "CCOC(=O)C1CCN(C(=O)CSc2n[nH]c(=O)[nH]c2=O)CC1",
    "Quantity Measured": "inhibition",
    "Unit Label": "%",
    "Value": 7.8
  },
  {
    "Compound": "COc1ccc(Cl)cc1C(=O)n1nc(C)cc1C",
    "Quantity Measured": "inhibition",
    "Unit Label": "%",
    "Value": -3.3
  },
  {
    "Compound": "COc1ccc(-c2cc3nc(C)c(CCC(=O)NCc4ccco4)c(C)n3n2)c(OC)c1",
    "Quantity Measured": "inhibition",
    "Unit Label": "%",
    "Value": 4.9
  },
  {
    "Compound": "CCC1CCCCN1S(=O)(=O)c1ccc(C(=O)Nc2nnc(-c3cccs3)o2)cc1 (centres undefined)",
    "Quantity Measured": "inhibition",
    "Unit Label": "%",
    "Value": 5.3
  }
]

Which inhibition is listed for COc1ccccc1C(O)P(=O)(OC(C)C)c1ccc(N(C)C)cc1 (centres undefined) ?
-3.9

Same read-out for "N#CC(C(=O)Nc1ccccc1)=C1CCCCC1" ?
-8.4

What would you report for CCC(C)(C)n1nnnc1C(c1ccccc1OC)N1CCSCC1 (centres undefined) ?
-16.3

Next compound up: CCn1ncc(C2=NOC(C(=O)N3CCC(C(N)=O)CC3)C2)c1C (centres undefined)
-7.8

Can you handle "Cc1nc(C)c(C(=O)Nc2ccc(C)c(F)c2)o1" next?
-4.5

Could you do the same for "O=C1c2ccccc2C(=O)N1OCc1ccccc1" , please?
-6

Same question, Cc1ccc(C)c(NC(=O)C2CCC(C)(C(=O)O)C2(C)C)c1 (centres undefined) this time
-2.5

Source listed as PubChem BioAssay.
